tested on: livers from treated male Sprague-Dawley rats; details: maximum of days 1, 3, 5; greater than zero = classified non-genotoxic hepatocarcinogen
Mark 1 (yes) only when Max (maximum scalar product observed over the multiple time points) stays strictly below 0.2. Values equal to the cut-off are 0 (no).

## Task In plain terms, does COC(=O)Nc1nc2ccc(Sc3ccccc3)cc2[nH]1 come in under 0.2 for Max (maximum scalar product observed over the multiple time points)?
## Result 1 (yes)

## Task Proceed to c1ccc2c(c1)Nc1ccccc1S2
## Result 0 (no)

## Task Moving on to CC(=O)Nc1ccc2c(c1)Cc1ccccc1-2 [2-acetylaminofluorene, reference compound]
## Result 1 (yes)

## Task Queued: O=C1Nc2ccc(Cl)cc2C(c2ccccc2Cl)=NC1O (stereo not shown)
## Result 1 (yes)

## Task Consider next the compound CC(C)=CCC/C(C)=C/CO in the same way.
## Result 1 (yes)

## Task Query C[C@]12Cc3c[nH]nc3C[C@@H]1CC[C@@H]1[C@@H]2CC[C@@]2(C)[C@H]1CC[C@]2(C)O next
## Result 0 (no)

## Task Input C=C(Cl)Cl [1,1-dichloroethene, reference compound]
## Result 1 (yes)

## Task // repeat for COc1ccc(C(CN(C)C)C2(O)CCCCC2)cc1 (stereo not shown) and report
## Result 1 (yes)

## Task Same question, C=C1CC[C@H](O)C/C1=C/C=C1\CCC[C@]2(C)[C@@H]([C@H](C)CCCC(C)C)CC[C@@H]12 this time
## Result 1 (yes)

## Task Now consider C[C@]12C/C(=C/O)C(=O)C[C@@H]1CC[C@@H]1[C@@H]2CC[C@@]2(C)[C@H]1CC[C@]2(C)O and answer again.
## Result 1 (yes)

## Task Proceed to CC[C@]1(O)CC[C@H]2[C@@H]3CCC4=CCCC[C@@H]4[C@H]3CC[C@@]21C
## Result 0 (no)

## Task Then what about the compound O=c1cc(-c2ccccc2)oc2ccc3ccccc3c12 ?
## Result 0 (no)

## Task What about this compound? ClC(Cl)(Cl)Cl [carbon tetrachloride, reference compound]
## Result 0 (no)
